# credit: ChEMBL document CHEMBL5120855

Consider the following compounds; for each one, report its pEC50.
System: HeLa
Assay: Rescue of cell viability in human HeLa cells expressing wild type PARP10 at upto 10 uM incubated for 10 to 12 days by methylene blue dye based colony formation assay
Format: functional
Scale explanation: pEC50 corresponds to minus log10 of a concentration expressed in moles per litre.

Tell me measured pEC50 for O=c1[nH][nH]c(=O)c2cc(OCc3ccsc3)ccc12 please.
6.02

Recall and state the measured pEC50 for O=c1[nH][nH]c(=O)c2cc(OCc3ccccc3F)ccc12 .
5.80

Answer with reported pEC50 of NC(=O)c1ccc(OCC2CCC2)cc1
6.23

// Input: O=c1[nH][nH]c(=O)c2cc(OCC3CCCCC3)ccc12 . Output its pEC50 only.
5.82

---

Target: Protein mono-ADP-ribosyltransferase PARP10 (Homo sapiens, UniProt Q53GL7)
Sequence (Q53GL7 whole entry): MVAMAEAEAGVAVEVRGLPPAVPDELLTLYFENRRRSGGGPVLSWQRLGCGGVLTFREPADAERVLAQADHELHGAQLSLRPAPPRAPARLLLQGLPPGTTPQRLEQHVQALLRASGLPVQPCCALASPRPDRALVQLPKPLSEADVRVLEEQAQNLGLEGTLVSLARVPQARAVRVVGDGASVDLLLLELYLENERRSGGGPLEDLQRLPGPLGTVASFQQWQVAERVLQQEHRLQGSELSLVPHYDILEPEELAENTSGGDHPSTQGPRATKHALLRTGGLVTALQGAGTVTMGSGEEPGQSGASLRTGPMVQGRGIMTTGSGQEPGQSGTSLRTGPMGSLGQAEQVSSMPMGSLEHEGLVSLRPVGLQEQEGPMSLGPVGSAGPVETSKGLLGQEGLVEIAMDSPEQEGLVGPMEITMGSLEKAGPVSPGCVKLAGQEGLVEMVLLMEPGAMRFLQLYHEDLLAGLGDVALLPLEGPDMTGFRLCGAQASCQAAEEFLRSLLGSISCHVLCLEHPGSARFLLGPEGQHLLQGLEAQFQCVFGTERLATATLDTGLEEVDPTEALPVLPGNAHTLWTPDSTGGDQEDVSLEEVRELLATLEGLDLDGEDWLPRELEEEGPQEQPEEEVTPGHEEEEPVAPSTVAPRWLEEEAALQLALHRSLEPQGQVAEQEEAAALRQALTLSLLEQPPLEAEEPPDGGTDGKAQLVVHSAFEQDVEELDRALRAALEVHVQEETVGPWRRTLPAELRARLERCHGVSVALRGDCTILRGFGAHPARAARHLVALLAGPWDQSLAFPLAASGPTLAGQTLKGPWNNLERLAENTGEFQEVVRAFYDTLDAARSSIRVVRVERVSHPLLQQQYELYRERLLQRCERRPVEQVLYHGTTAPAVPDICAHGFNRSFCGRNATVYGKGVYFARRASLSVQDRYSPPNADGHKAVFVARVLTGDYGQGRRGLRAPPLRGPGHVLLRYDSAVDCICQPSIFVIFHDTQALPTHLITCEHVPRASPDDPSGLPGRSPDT
quantity: pIC50
In simple prose, pIC50 is minus the logarithm base ten of a concentration in moles per litre.

Please list pIC50 recorded for the molecule O=c1[nH][nH]c(=O)c2cc(OCc3ccccc3F)ccc12
6.82

Kindly indicate its recorded pIC50. Item: NC(=O)c1ccc(OCC2CCCC2)cc1
6.23

Input O=c1[nH][nH]c(=O)c2cc(OCC3CCCCC3)ccc12 , output reported pIC50.
6.85

Recall and state the measured pIC50 for NC(=O)c1ccc(OCC2CC2)cc1 .
6.22

Please give measured pIC50 of the following entry: O=c1[nH][nH]c(=O)c2cc(OCC3CCC3)ccc12
6.80

Answer with the recorded pIC50 of NC(=O)c1ccc(OCC2CCCCC2)cc1 only.
5.77

Answer with the recorded pIC50 of NC(=O)c1ccc(OCc2cccc(Br)c2)cc1F only.
5.82

// fetch pIC50 given entry NC(=O)c1ccc(OCC2CCCCC2)cc1F
6.02

Give the reported pIC50 for this molecule. O=c1[nH][nH]c(=O)c2cc(OCc3cccc(Br)c3)ccc12
5.92

Answer with the recorded pIC50 of O=c1[nH][nH]c(=O)c2cc(OCc3ccsc3)ccc12 only.
6.80

Provide one value: measured pIC50 of NC(=O)c1ccc(OCc2cncs2)cc1
5.80
